// data source = paper PMC6150173

Reported Hemolysis (%) at 50 µM values follow for various compounds
# Tested on: erythrocyte suspensions of human blood
# Experimental protocol: Hemolytic activity, hemoglobin release
# Type: cell-based
# Condition context: peptide 50 μM (table prints 50 µM); human blood erythrocytes 5% v/v; absorbance 540 nm; percentage compared to melittin; three replicates
Peptide text beside a SMILES is read from it.
Observation type: Hemolysis (%) at 50 µM

1) CC(C)C[C@@H]1NC(=O)[C@H](CCCCN)NC(=O)[C@H](CCC(N)=O)NC(=O)[C@H](CCCCN)NC(=O)[C@H](CC(C)C)NC(=O)[C@H](CCCCN)NC(=O)[C@H](Cc2c[nH]c3ccccc23)NC(=O)[C@H](CC(C)C)NC(=O)[C@H](CCCCN)NC(=O)[C@H](CCCCN)NC1=O [BPC114W, c(KLKKLWKLKQ)] (cyclo(KKLWKLKQKL)); 29%
2) CC(C)C[C@@H]1NC(=O)[C@H](CCC(N)=O)NC(=O)[C@H](CC(C)C)NC(=O)[C@H](CCCCN)NC(=O)[C@H](CCCCN)NC(=O)[C@H](Cc2c[nH]c3ccccc23)NC(=O)[C@H](CCCCN)NC(=O)[C@H](CC(C)C)NC(=O)[C@H](CCCCN)NC(=O)[C@H](CCCCN)NC1=O [BPC092W, c(LKKLKWKKLQ)] (cyclo(KKLKWKKLQL)); 2%
3) CC(C)C[C@@H]1NC(=O)[C@H](CCCCN)NC(=O)[C@H](Cc2c[nH]c3ccccc23)NC(=O)[C@H](CC(C)C)NC(=O)[C@H](CCCCN)NC(=O)[C@H](CC(C)C)NC(=O)[C@H](CCCCN)NC(=O)[C@H](CCCCN)NC(=O)[C@H](CCC(N)=O)NC(=O)[C@H](CCCCN)NC1=O [BPC112W, c(KKLKLWKLKQ)] (cyclo(KKLKLWKLKQ)); 3%
